# Test system: HSV-2 (G)
# ASSAY_SUMMARY: Antiviral activity in vitro: retardation of virus-induced cytopathogenicity in primary rabbit kidney cells, HSV-2 (G)
# Type: cell-based, herpes simplex virus, Type 2
# PARTICULARS: Human alphaherpesvirus 2, average of 2 or 3 determinations, read-out: Minimum Inhibitory Concentration (concentration necessary to reduce by 50% the cytopathogenicity induced by the virus)
Where a name gives a salt, the structure may show the parent alone.
READOUT: IC50 (µg/mL)

| COMPOUND | UNIT_ABBREV | MEAS_VALUE |
| --- | --- | --- |
| Cl.NCC(=O)OCCOCn1cnc2c(=O)[nH]c(N)nc21 | µg/mL | 0.08 |
| NCCC(=O)OCCOCn1cnc2c(=O)[nH]c(N)nc21 [Example 3, hydrochloride] | µg/mL | 0.15 |

I: CC(N)C(=O)OCCOCn1cnc2c(=O)[nH]c(N)nc21 (stereo not shown) [Example 2, hydrochloride]
II: Nc1nc2c(ncn2COCCO)c(=O)[nH]1 [Acyclovir, 9-(2-Hydroxyethoxymethyl)guanine, reference compound]
Req: Which value of IC50 is smaller, the one for I or the one for II ? Lab note: record the label of whichever item you select.
Resp: II
(II: 0.06 µg/mL, I: 0.2 µg/mL)

====

# Tested on: HSV-1 (F)
# ASSAY_SUMMARY: Antiviral activity in vitro: retardation of virus-induced cytopathogenicity in primary rabbit kidney cells, HSV-1 (F)
# Type: cell-based, herpes simplex virus, Type 1
# PARTICULARS: Human alphaherpesvirus 1, average of 2 or 3 determinations, read-out: Minimum Inhibitory Concentration (concentration necessary to reduce by 50% the cytopathogenicity induced by the virus)
Counter-ions that a name gives are not always drawn.
READOUT: IC50 (µg/mL)

See these solved cases before continuing.
| MOLECULE | MEAS_VALUE |
| --- | --- |
| Nc1nc2c(ncn2COCCO)c(=O)[nH]1 [Acyclovir, 9-(2-Hydroxyethoxymethyl)guanine, reference compound] | 0.09 |
| CC(N)C(=O)OCCOCn1cnc2c(=O)[nH]c(N)nc21 (stereo not shown) [Example 2, hydrochloride] | 0.4 |

1: Cl.NCC(=O)OCCOCn1cnc2c(=O)[nH]c(N)nc21
2: NCCC(=O)OCCOCn1cnc2c(=O)[nH]c(N)nc21 [Example 3, hydrochloride]
Req: In the pair 1 and 2 , the larger recorded IC50 belongs to which? Lab note: record the label of whichever item you select.
Resp: 2
(2: 0.5 µg/mL, 1: 0.1 µg/mL)
